Details: 303.15 K; 2000 kPa; Liquid
List of mass density values.
Form entry: value (kg/m3) — number only.

Here is how some compounds turned out for mass density.
Inquiry: Suppose we examine the compound CCCCCCCCCCCCCC[P+](CCCCCC)(CCCCCC)CCCCCC.N#C[N-]C#N [tetradecyl(trihexyl)phosphonium dicyanamide] ; what mass density value has been reported?
Reply text: 896.9

Inquiry: Suppose we examine the compound CCCCCCCCCCCCCC[P+](CCCCCC)(CCCCCC)CCCCCC.CS(=O)(=O)[O-] [trihexyltetradecylphosphonium methanesulfonate] ; what mass density value has been reported?
Reply text: 926.7

Inquiry: Suppose we examine the compound CCCCCCCCCCCCCC[P+](CCCCCC)(CCCCCC)CCCCCC.[Cl-] [trihexyl(tetradecyl)phosphonium chloride] ; what mass density value has been reported?
Reply text: 887.5

Inquiry: Suppose we examine the compound CCCCCCCCCCCCCC[P+](CCCCCC)(CCCCCC)CCCCCC.[Br-] [tetradecyltrihexylphosphonium bromide] ; what mass density value has been reported?
Reply text: 951.4

# input for lookup
Inquiry: Suppose we examine the compound CCCCCCCCCCCCCC[P+](CCCCCC)(CCCCCC)CCCCCC.O=S(=O)([N-]S(=O)(=O)C(F)(F)F)C(F)(F)F ; what mass density value has been reported?
Reply text: 1063.9
